The reported measurements were obtained from patent US7064120B2.

target: human oxytocin receptor (Homo sapiens); construct: host or cells: CHO cells, stably transfected (pcDNA3.1 vector); assay: Oxytocin binding in CHO cell membranes expressing human oxytocin receptors ([3H]oxytocin radioligand binding); settings: 100 nM, read-out: OT % inhibition @ 100 nM
Sequence (P30559 whole entry): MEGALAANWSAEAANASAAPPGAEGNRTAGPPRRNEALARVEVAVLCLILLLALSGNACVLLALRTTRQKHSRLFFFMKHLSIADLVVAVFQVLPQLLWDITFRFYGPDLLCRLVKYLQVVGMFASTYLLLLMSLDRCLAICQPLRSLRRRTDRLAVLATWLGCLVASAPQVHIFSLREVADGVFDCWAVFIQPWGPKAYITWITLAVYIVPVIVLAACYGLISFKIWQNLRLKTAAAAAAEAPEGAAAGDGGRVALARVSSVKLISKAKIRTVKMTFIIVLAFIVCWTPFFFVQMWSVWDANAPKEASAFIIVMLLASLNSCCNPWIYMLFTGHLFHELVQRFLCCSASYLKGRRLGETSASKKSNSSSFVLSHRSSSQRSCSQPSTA
ENDPOINT LABEL: inhibition at 0.1 µM (%)

Would you please look over these solved cases?
COc1ccccc1-c1ccc(C(=O)N2Cc3ccc(C(=O)N(C)CCc4ccccn4)n3Cc3ccccc32)cc1 [Example 67] = 91
COc1ccccc1-c1ccc(C(=O)N2Cc3ccc(C(=O)N4CCN(c5ccncc5)CC4)n3Cc3ccccc32)cc1 [Example 116] = 101
COc1ccccc1-c1ccc(C(=O)N2Cc3ccc(C(=O)N(C)Cc4cccnc4)n3Cc3ccccc32)cc1 [Example 104] = 99
Cc1ccccc1-c1ccc(C(=O)N2Cc3ccc(C(=O)NCc4cccnc4)n3Cc3ccccc32)cc1C [Example 37] = 60
Cc1ccccc1-c1ccc(C(=O)N2Cc3ccc(C(=O)N4CCN(c5ccncc5)CC4)n3Cc3ccccc32)cc1C [Example 114] = 94
COc1cc(-c2ccccc2C)c(Cl)cc1C(=O)N1Cc2ccc(C(=O)N3CCN(c4ccncc4)CC3)n2Cc2ccccc21 [Example 119] = 83
COc1ccccc1-c1ccc(C(=O)N2Cc3ccc(C(=O)NCCc4ccccn4)n3Cc3ccccc32)cc1 [Example 52] = 51
Cc1ccccc1-c1ccc(C(=O)N2Cc3ccc(C(=O)NCc4ccncc4)n3Cc3ccccc32)cc1 [Example 92] = 30

A = COc1cc(-c2ccccc2C)c(Cl)cc1C(=O)N1Cc2ccc(C(=O)NCc3ccncc3)n2Cc2ccccc21 [Example 94]
B = Cc1ccccc1-c1ccc(C(=O)N2Cc3ccc(C(=O)N(C)CCc4ccccn4)n3Cc3ccccc32)cc1C [Example 66]
C = Cc1ccccc1-c1ccc(C(=O)N2Cc3ccc(C(=O)N4CCN(c5ccccn5)CC4)n3Cc3ccccc32)cc1C [Example 76]
D = O=C(c1ccc2n1Cc1ccccc1N(C(=O)c1ccc(-c3cccc4ccccc34)cc1Cl)C2)N1CCN(c2ccncc2)CC1 [Example 124]
E = O=C(NCCc1ccccn1)c1ccc2n1Cc1ccccc1N(C(=O)c1ccc(-c3cccc4ccccc34)cc1Cl)C2 [Example 60]
[in] Hi! Can you put these in order of inhibition at 0.1 µM, lowest number first? Please write the labels in the order that was asked for.
[out] E, D, A, C, B
(E: 11%, D: 24%, A: 37%, C: 62%, B: 92%)

I = COc1ccccc1-c1ccc(C(=O)N2Cc3ccc(C(=O)N(C)CCc4ccncc4)n3Cc3ccccc32)cc1OC [Example 125]
II = COc1cc(C(=O)N2Cc3ccc(C(=O)NCc4cccnc4)n3Cc3ccccc32)ccc1-c1ccccc1C [Example 41]
[in] Looking only at measured inhibition at 0.1 µM, which entry is lower, I or II ? Answer format: the label of the selected item.
[out] II

###

Target: human vasopressin V2 receptor subtype (Homo sapiens)
Construct: host or cells: CHO cells, stably transfected (pZeoSV vector)
Experiment: Vasopressin binding in CHO cell membranes expressing human vasopressin V2 subtype receptors ([3H]arginine vasopressin radioligand binding)
Settings: 100 nM
Procedure: Vasopressin Binding in Chinese Hamster Ovary Cell Membranes Expressing Human Vasopressin V2 Subtype Receptors Chinese Hamster Ovary (CHO) cells stably transfected with the human V2 subtype receptors were obtained from M. Thibonnier, Case Western Reserve University School of Medicine, Cleveland, Ohio. […] Binding data is either reported as percent inhibition at a certain concentration or if an IC50 was calculated, as a nanomolar concentration.
ENDPOINT LABEL: inhibition at 0.1 µM (%)

Cc1ccccc1-c1ccc(C(=O)N2Cc3ccc(C(=O)NCc4cccnc4)n3Cc3ccccc32)cc1C = 7
COc1ccccc1-c1ccc(C(=O)N2Cc3ccc(C(=O)N4CCCCC4c4cccnc4)n3Cc3ccccc32)cc1OC (stereo not shown) = 40
COc1cc(-c2ccccc2C)c(Cl)cc1C(=O)N1Cc2ccc(C(=O)NCc3ccncc3)n2Cc2ccccc21 = 5

A = COc1cc(C(=O)N2Cc3ccc(C(=O)N(C)CCc4ccncc4)n3Cc3ccccc32)ccc1-n1c(C)ccc1C
B = COc1ccccc1-c1ccc(C(=O)N2Cc3ccc(C(=O)N4CCN(c5ccccn5)CC4)n3Cc3ccccc32)cc1OC
[in] Could you please tell me which of these two has the higher inhibition at 0.1 µM: A or B ? Answer format: the label of the selected item.
[out] A
(A: 21%, B: 14%)

a = COc1ccccc1-c1ccc(C(=O)N2Cc3ccc(C(=O)N(C)CCc4ccncc4)n3Cc3ccccc32)cc1
b = Cc1ccccc1-c1ccc(C(=O)N2Cc3ccc(C(=O)N(C)CCc4ccncc4)n3Cc3ccccc32)cc1
[in] Looking only at measured inhibition at 0.1 µM, which entry is lower, a or b ? Answer format: the label of the selected item.
[out] b

###

biological target: human vasopressin V2 receptor subtype (Homo sapiens); construct: host or cells: CHO cells, stably transfected (pZeoSV vector); test: Vasopressin binding in CHO cell membranes expressing human vasopressin V2 subtype receptors ([3H]arginine vasopressin radioligand binding); settings: 100 nM
ENDPOINT LABEL: inhibition at 0.1 µM (%)

Would you please look over these solved cases?
COc1cccc(-c2ccc(C(=O)N3Cc4ccc(C(=O)NCc5ccncc5)n4Cc4ccccc43)cc2C)c1 = 11
Cc1ccccc1-c1ccc(C(=O)N2Cc3ccc(C(=O)N4CCN(c5ccncc5)CC4)n3Cc3ccccc32)cc1C = 18

a = COc1cc(C(=O)N2Cc3ccc(C(=O)NCCc4ccccn4)n3Cc3ccccc32)ccc1-c1cccc2ccccc12
b = Cc1ccccc1-c1ccc(C(=O)N2Cc3ccc(C(=O)N4CCN(c5ccncc5)CC4)n3Cc3ccccc32)cc1
[in] Could you please tell me which of these two has the higher inhibition at 0.1 µM: a or b ? Answer format: the label of the selected item.
[out] a

###

A collection of molecules and their measured V2 % inhibition @ 100 nM
target: human vasopressin V2 receptor subtype (Homo sapiens, UniProt P30518); construct: host or cells: CHO cells, stably transfected (pZeoSV vector); assay: Vasopressin binding in CHO cell membranes expressing human vasopressin V2 subtype receptors ([3H]arginine vasopressin radioligand binding); details: 100 nM
Sequence (P30518 whole entry): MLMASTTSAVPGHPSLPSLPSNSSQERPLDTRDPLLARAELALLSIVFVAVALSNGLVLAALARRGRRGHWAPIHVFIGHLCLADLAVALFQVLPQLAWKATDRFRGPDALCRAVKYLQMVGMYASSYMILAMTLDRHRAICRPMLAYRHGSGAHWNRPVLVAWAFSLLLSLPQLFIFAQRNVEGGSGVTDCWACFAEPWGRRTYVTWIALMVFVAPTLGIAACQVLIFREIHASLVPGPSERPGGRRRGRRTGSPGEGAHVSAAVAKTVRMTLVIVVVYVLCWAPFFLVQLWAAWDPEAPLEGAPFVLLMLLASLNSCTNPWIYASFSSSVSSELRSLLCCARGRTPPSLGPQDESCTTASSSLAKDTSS
Provide the reading as a plain figure in %.

Would you please look over these solved cases?
COc1cc(C(=O)N2Cc3ccc(C(=O)N4CCN(c5ccncc5)CC4)n3Cc3ccccc32)ccc1-c1ccccc1C = −10
Cc1cc(C(=O)N2Cc3ccc(C(=O)NCCc4ccccn4)n3Cc3ccccc32)ccc1-c1ccccc1C(F)(F)F = 14
COc1cc(C(=O)N2Cc3ccc(C(=O)N4CCN(c5ccccn5)CC4)n3Cc3ccccc32)ccc1-c1cccc2ccccc12 = 22
COc1cccc(-c2ccc(C(=O)N3Cc4ccc(C(=O)N(C)Cc5cccnc5)n4Cc4ccccc43)cc2OC)c1 = 32
Cc1cc(C(=O)N2Cc3ccc(C(=O)N4CCN(c5ccncc5)CC4)n3Cc3ccccc32)ccc1-c1ccccc1C(F)(F)F = 18

Attention now turns to another entry.
// recorded V2 % inhibition @ 100 nM for COc1cccc(-c2ccc(C(=O)N3Cc4ccc(C(=O)NCc5ccncc5)n4Cc4ccccc43)cc2OC)c1 : 10

###

target: human vasopressin V1a receptor subtype (Homo sapiens, UniProt P37288); construct: host or cells: CHO cells, stably transfected (pZeoSV vector for the Thibonnier line); assay: Vasopressin binding in CHO cell membranes expressing human vasopressin V1a subtype receptors ([3H]Manning ligand radioligand binding); conditions: 100 nM
Sequence (P37288 whole entry): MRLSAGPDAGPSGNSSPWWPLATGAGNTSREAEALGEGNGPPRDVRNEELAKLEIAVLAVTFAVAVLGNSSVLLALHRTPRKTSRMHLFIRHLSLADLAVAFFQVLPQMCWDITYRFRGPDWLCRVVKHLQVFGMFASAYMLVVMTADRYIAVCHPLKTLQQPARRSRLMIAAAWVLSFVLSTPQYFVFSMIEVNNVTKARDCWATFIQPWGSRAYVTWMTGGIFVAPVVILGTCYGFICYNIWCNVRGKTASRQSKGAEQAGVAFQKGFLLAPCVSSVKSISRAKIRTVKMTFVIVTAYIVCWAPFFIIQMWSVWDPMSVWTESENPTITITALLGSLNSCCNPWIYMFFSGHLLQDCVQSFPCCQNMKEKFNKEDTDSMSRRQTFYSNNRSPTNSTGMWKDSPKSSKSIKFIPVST
ENDPOINT LABEL: inhibition at 0.1 µM (%)

Would you please look over these solved cases?
COc1ccccc1-c1ccc(C(=O)N2Cc3ccc(C(=O)N(C)CCc4ccncc4)n3Cc3ccccc32)cc1OC = 17
COc1cc(C(=O)N2Cc3ccc(C(=O)N4CCN(c5ccccn5)CC4)n3Cc3ccccc32)ccc1-c1ccccc1C = 6
Cc1ccccc1-c1ccc(C(=O)N2Cc3ccc(C(=O)N4CCN(c5ccncc5)CC4)n3Cc3ccccc32)cc1C = 56

1 = COc1cc(C(=O)N2Cc3ccc(C(=O)NCCc4ccccn4)n3Cc3ccccc32)ccc1-c1cccc2ccccc12
2 = COc1cc(C(=O)N2Cc3ccc(C(=O)N4CCN(c5ccncc5)CC4)n3Cc3ccccc32)ccc1-c1cccc2ccccc12
3 = Cc1ccccc1-c1ccc(C(=O)N2Cc3ccc(C(=O)N(C)CCc4ccccn4)n3Cc3ccccc32)cc1
4 = Cc1cc(C(=O)N2Cc3ccc(C(=O)NCc4ccccn4)n3Cc3ccccc32)ccc1-c1ccccc1C(F)(F)F
[in] Output the entries ranked by inhibition at 0.1 µM from maximum down to minimum. Please write the labels in the order that was asked for.
[out] 3, 2, 4, 1
(3: 81%, 2: 17%, 4: 4%, 1: 2%)

###

target: human vasopressin V1a receptor subtype (Homo sapiens); construct: host or cells: CHO cells, stably transfected (pZeoSV vector for the Thibonnier line); test: Vasopressin binding in CHO cell membranes expressing human vasopressin V1a subtype receptors ([3H]Manning ligand radioligand binding); conditions: 100 nM
ENDPOINT LABEL: inhibition at 0.1 µM (%)

Would you please look over these solved cases?
Cc1ccccc1-c1ccc(C(=O)N2Cc3ccc(C(=O)NCc4ccncc4)n3Cc3ccccc32)cc1 = 21
COc1cc(-c2ccccc2C)c(Cl)cc1C(=O)N1Cc2ccc(C(=O)N(C)CCc3ccncc3)n2Cc2ccccc21 = 26
CN(CCc1ccncc1)C(=O)c1ccc2n1Cc1ccccc1N(C(=O)c1ccc(-c3cccc4ccccc34)cc1Cl)C2 = 7

a = COc1cccc(-c2cc(OC)c(C(=O)N3Cc4ccc(C(=O)N(C)CCc5ccccn5)n4Cc4ccccc43)cc2Cl)c1
b = COc1ccccc1-c1ccc(C(=O)N2Cc3ccc(C(=O)N(C)CCc4ccccn4)n3Cc3ccccc32)cc1C
c = Cc1ccccc1-c1ccc(C(=O)N2Cc3ccc(C(=O)N(C)CCc4ccncc4)n3Cc3ccccc32)cc1C
d = COc1ccccc1-c1ccc(C(=O)N2Cc3ccc(C(=O)NCc4cccnc4)n3Cc3ccccc32)cc1OC
[in] Output the entries ranked by inhibition at 0.1 µM from maximum down to minimum. Please write the labels in the order that was asked for.
[out] c, b, a, d
